Tested on: serum SARS-green
Type: binding, human
Criterion: Binding of serum SARS-green to linear peptides of Orf14 of SARS-CoV TOR2 strictly less than 0.3. Met: 1. Not met: -1.

Would you please look over these solved cases?
>  <SEQ TEXT>
LLEWLAEVVKLPSRY

>  <LABEL CLASS>
1

$$$$
>  <SEQ TEXT>
AVIQEIQLLAAVGEI

>  <LABEL CLASS>
-1

$$$$
>  <SEQ TEXT>
EWLAEVVKLPSRYCC

>  <LABEL CLASS>
-1

$$$$
>  <SEQ TEXT>
VIQEIQLLAAVGEIL

>  <LABEL CLASS>
-1

$$$$

Now consider the entry below.
Please determine if `VVAVIQEIQLLAAVG` is below 0.3 in terms of Binding of serum SARS-green to linear peptides of Orf14 of SARS-CoV TOR2.
-1

----------
Tested on: serum 37 (individual 37)
Type: binding, human
READOUT TYPE: Binding of serum 37 to linear peptides of Orf14 of SARS-CoV TOR2
I'd appreciate a reply containing only the number, no unit.

>  <SEQ TEXT>
MLPPCYNFLKEQHCQ

>  <OBSERVED MEASUREMENT>
0.5

$$$$

According to the records, this sequence `HCQKASTQREAEAAV` displays Binding of serum 37 to linear peptides of Orf14 of SARS-CoV TOR2 of 0.7

According to the records, this sequence `EILLLEWLAEVVKLP` displays Binding of serum 37 to linear peptides of Orf14 of SARS-CoV TOR2 of 0.6

According to the records, this sequence `GEILLLEWLAEVVKL` displays Binding of serum 37 to linear peptides of Orf14 of SARS-CoV TOR2 of 0.6

According to the records, this sequence `EIQLLAAVGEILLLE` displays Binding of serum 37 to linear peptides of Orf14 of SARS-CoV TOR2 of 0.6

According to the records, this sequence `NFLKEQHCQKASTQR` displays Binding of serum 37 to linear peptides of Orf14 of SARS-CoV TOR2 of 0.5

According to the records, this sequence `LLLEWLAEVVKLPSR` displays Binding of serum 37 to linear peptides of Orf14 of SARS-CoV TOR2 of 0.7

According to the records, this sequence `TQREAEAAVKPLLAP` displays Binding of serum 37 to linear peptides of Orf14 of SARS-CoV TOR2 of 0.4

According to the records, this sequence `QHCQKASTQREAEAA` displays Binding of serum 37 to linear peptides of Orf14 of SARS-CoV TOR2 of 0.5

According to the records, this sequence `QREAEAAVKPLLAPH` displays Binding of serum 37 to linear peptides of Orf14 of SARS-CoV TOR2 of 0.4

According to the records, this sequence `QEIQLLAAVGEILLL` displays Binding of serum 37 to linear peptides of Orf14 of SARS-CoV TOR2 of 0.6

According to the records, this sequence `PLLAPHHVVAVIQEI` displays Binding of serum 37 to linear peptides of Orf14 of SARS-CoV TOR2 of 0.6

According to the records, this sequence `EWLAEVVKLPSRYCC` displays Binding of serum 37 to linear peptides of Orf14 of SARS-CoV TOR2 of 1.0

According to the records, this sequence `AEAAVKPLLAPHHVV` displays Binding of serum 37 to linear peptides of Orf14 of SARS-CoV TOR2 of 0.8

According to the records, this sequence `STQREAEAAVKPLLA` displays Binding of serum 37 to linear peptides of Orf14 of SARS-CoV TOR2 of 0.6

According to the records, this sequence `ILLLEWLAEVVKLPS` displays Binding of serum 37 to linear peptides of Orf14 of SARS-CoV TOR2 of 0.6

According to the records, this sequence `VIQEIQLLAAVGEIL` displays Binding of serum 37 to linear peptides of Orf14 of SARS-CoV TOR2 of 0.6

According to the records, this sequence `KPLLAPHHVVAVIQE` displays Binding of serum 37 to linear peptides of Orf14 of SARS-CoV TOR2 of 0.6

According to the records, this sequence `LLAPHHVVAVIQEIQ` displays Binding of serum 37 to linear peptides of Orf14 of SARS-CoV TOR2 of 0.6

According to the records, this sequence `QKASTQREAEAAVKP` displays Binding of serum 37 to linear peptides of Orf14 of SARS-CoV TOR2 of 0.4

According to the records, this sequence `ASTQREAEAAVKPLL` displays Binding of serum 37 to linear peptides of Orf14 of SARS-CoV TOR2 of 0.5
